System: DU-145 prostate
Experiment: NCI tumour cell line growth inhibition, 48 h
propertyName: TGI (µM)
The reply should contain only the number, in µM.

CCc1ccc(Oc2c(-c3ccc(OCc4ccc(Cl)cc4)cc3O)n[nH]c2C(F)(F)F)cc1: 7.44

Switching to the query record.
Fill in the blank: the reported TGI of O=C1N[C@@H]2[C@@H](O)[C@@H](O)[C@H](O)C[C@H]2c2cc3c(c(O)c21)OCCO3 is ____.
0.84

----------
Tested on: SNB-19 CNS
Assay: NCI tumour cell line growth inhibition, 48 h; in the data active = GI50 below about 0.43 µM; inactive = the rest
Give your call using only these classes: active, inactive

COc1ccc2ncn(-c3cc(O[C@H](C)c4ccccc4C(F)(F)F)c(C(N)=O)s3)c2c1: inactive
CNC(=O)c1ccc(N2C(=S)N(c3cnc(C#N)c(C(F)(F)F)c3)C(=O)C23CCC3)cc1F: inactive
CCc1ccc(Oc2c(-c3ccc(OCc4ccc(Cl)cc4)cc3O)n[nH]c2C(F)(F)F)cc1: inactive
Clc1c(Cl)[n+](Cc2ccc3ccccc3c2)cn1Cc1ccc2ccccc2c1: inactive
Cc1cnc2n1S(=O)(=O)c1cc(C(=O)Nc3cccc4nsnc34)c(Cl)cc1S2: inactive
Cc1ccc(O)c(NC(=O)c2cccc(Nc3ccnc(C(F)(F)F)c3)c2)c1: inactive

Recorded call for COc1ccc(/C=C\c2cc(OC)c(OC)c(OC)c2)cc1OCC(=O)Nc1nc2ccc(F)cc2s1 ?
inactive
